assay: Metabolic stability in human liver microsomes assessed as half life at 1 uM; assay type: ADME, Microsome
observation.type: half-life at 1 µM (min)

compound	observation.type	measure.unit	censoring.qualifier	recorded.value
CC(C)(O)c1cc(F)c2c(c1)C(=O)N(Cc1ccc(Cl)cn1)[C@@]2(OCC1(C(N)=O)CC1)c1ccc(Cl)cc1	half-life at 1 µM	min	>	360
CC(C)(O)c1ccc2c(c1)C(=O)N(Cc1ccc(Cl)cc1)[C@@]2(OCC1(CO)CC1)c1ccc(Cl)cc1	half-life at 1 µM	min	=	9.5
[2H]C([2H])(O)C1(C([2H])([2H])O[C@]2(c3ccc(Cl)cc3)c3c(F)cc(C(C)(C)O)cc3C(=O)N2Cc2ccc(C#N)cn2)CC1	half-life at 1 µM	min	=	52
[2H]C([2H])(O)C1(C([2H])([2H])O[C@]2(c3ccc(Cl)cc3)c3ccc(C(C)(C)O)cc3C(=O)N2Cc2ccc(Cl)cc2)CC1	half-life at 1 µM	min	=	17
CC(C)(O)c1cc(F)c2c(c1)C(=O)N(Cc1ccc(Cl)cn1)[C@@]2(OCC1(O)CC1)c1ccc(Cl)cc1	half-life at 1 µM	min	=	51
[2H]C([2H])(O)C1(C([2H])([2H])O[C@]2(c3ccc(Cl)cc3)c3c(F)cc(C(C)(C)O)cc3C(=O)N2Cc2ccc(Cl)cn2)CC1	half-life at 1 µM	min	=	5.7
CC(C)(O)CCO[C@]1(c2ccc(Cl)cc2)c2ccc(C(C)(C)O)cc2C(=O)N1Cc1ccc(Cl)cc1	half-life at 1 µM	min	>	70
CC(C)(O)c1ccc2c(c1)C(=O)N(Cc1ccc(Cl)cc1)C2(OCC1(C(=O)O)CC1)c1ccc(Cl)cc1 (racemic)	half-life at 1 µM	min	>	360
CC(C)(O)c1cc(F)c2c(c1)C(=O)N(Cc1ccc(C#N)cn1)[C@@]2(OCC1(CO)CC1)c1ccc(Cl)cc1	half-life at 1 µM	min	=	18
